# maps each entry to its Activity
system: CEM-SS; assay: Cytotoxicity against human CEM-SS cells assessed as viable cells at 10 uM; format: cell-based
State the value, then name its unit.

Inquiry: Activity of CCOCn1c(C(=O)c2cc(C)cc(C)c2)c(CC)c(=O)n(O)c1=O on CEM-SS?
Reply text: 100%

Inquiry: Let us now turn to CCc1c(C(=O)c2ccccc2)n(COCCc2ccc(F)cc2)c(=O)n(O)c1=O
Reply text: 100%

Inquiry: Further, for CCc1c(C(=O)c2cc(C)cc(C)c2)n(COCc2ccc(F)cc2)c(=O)n(O)c1=O ?
Reply text: 100%

Inquiry: Subsequent entry: CCc1c(C(=O)c2cc(C)cc(C)c2)n(COCc2ccccc2)c(=O)n(O)c1=O
Reply text: 100%

Inquiry: Same read-out for CCc1c(C(=O)c2cc(C)cc(C)c2)n(COCCc2ccc(F)cc2)c(=O)n(O)c1=O ?
Reply text: 81%

Inquiry: Ok, now CCOCn1c(C(=O)c2ccccc2)c(CC)c(=O)n(O)c1=O
Reply text: 100%

Inquiry: Please answer likewise for CCc1c(C(=O)c2ccccc2)n(COCc2ccc(F)cc2)c(=O)n(O)c1=O
Reply text: 100%

Inquiry: For CCc1c(C(=O)c2ccccc2)n(COCc2ccccc2)c(=O)n(O)c1=O then?
Reply text: 98%

====

tested on: CEM-SS; test: Cytotoxicity against human CEM-SS cells; type: cell-based
List of CC50 values.
Value expressed in µM; do not type the unit.

>>> df
                            smiles_notation  tested_on  measurement_kind  value
0  CCOCn1c(C(=O)c2ccccc2)c(CC)c(=O)n(O)c1=O     CEM-SS              CC50     94
1  CCOCn1c(C(=O)c2cc(C)cc(C)c2)c(CC)c(=O)n(O)c1=O     CEM-SS              CC50     77
2  CCc1c(C(=O)c2cc(C)cc(C)c2)n(COCc2ccccc2)c(=O)n(O)c1=O     CEM-SS              CC50     33

Inquiry: Need CC50, item CCc1c(C(=O)c2cc(C)cc(C)c2)n(COCc2ccc(F)cc2)c(=O)n(O)c1=O
Reply text: 28

====

Overview of recorded inhibition for various compounds
target: Human immunodeficiency virus type 1 reverse transcriptase (Human immunodeficiency virus 1); assay: Inhibition of HIV-1 reverse transcriptase at 10 uM
Please reply with the bare figure in % and do not write the unit itself.

>>> print(df.to_string())
                            smiles_notation  measurement_kind  uom  value
0  CCc1c(C(=O)c2cc(C)cc(C)c2)n(COCCc2ccc(F)cc2)c(=O)n(O)c1=O        inhibition    %     60
1  CCc1c(C(=O)c2ccccc2)n(COCCc2ccc(F)cc2)c(=O)n(O)c1=O        inhibition    %      4

Inquiry: What measured inhibition goes with CCc1c(C(=O)c2cc(C)cc(C)c2)n(COCc2ccccc2)c(=O)n(O)c1=O ?
Reply text: 79

Inquiry: Please give the result for CCOCn1c(C(=O)c2cc(C)cc(C)c2)c(CC)c(=O)n(O)c1=O too.
Reply text: 61

====

test system: Human immunodeficiency virus 1; assay: Antiviral activity against HIV-1 3B infected in human CEM-SS cells; assay type: functional, organism-based; settings: Human immunodeficiency virus 1, 3B
# note: exactly 300 nM is not below, so it is No; use Yes for EC50 strictly under it

Some entries whose results are on file:
                            smiles_notation  label_class
0  CCc1c(C(=O)c2ccccc2)n(COCc2ccccc2)c(=O)n(O)c1=O           No
1  CCc1c(C(=O)c2cc(C)cc(C)c2)n(COCc2ccccc2)c(=O)n(O)c1=O          Yes
2  CCc1c(C(=O)c2ccccc2)n(COCc2ccc(F)cc2)c(=O)n(O)c1=O           No
3  CCc1c(C(=O)c2ccccc2)n(COCCc2ccc(F)cc2)c(=O)n(O)c1=O           No
4  CCOCn1c(C(=O)c2cc(C)cc(C)c2)c(CC)c(=O)n(O)c1=O          Yes
5  CCc1c(C(=O)c2cc(C)cc(C)c2)n(COCc2ccc(F)cc2)c(=O)n(O)c1=O           No

Proceed to the following item.
Inquiry: # strict comparison: is reported EC50 < 300 nM? input = CCOCn1c(C(=O)c2ccccc2)c(CC)c(=O)n(O)c1=O
Reply text: No

====

target: Human immunodeficiency virus type 1 reverse transcriptase (Human immunodeficiency virus 1, UniProt Q72547)
MEASUREMENT KIND: pIC50
Keep in mind that pIC50 stands for -log10 of concentration in molar terms.

Examples from the recorded data:
In [3]: df
Out[3]:
                            smiles_notation  measurement_kind  value
0  CCc1c(C(=O)c2ccccc2)n(COCc2ccc(F)cc2)c(=O)n(O)c1=O             pIC50   4.64
1  CCOCn1c(C(=O)c2ccccc2)c(CC)c(=O)n(O)c1=O             pIC50   4.37
2  CCOCn1c(C(=O)c2cc(C)cc(C)c2)c(CC)c(=O)n(O)c1=O             pIC50   6.30
3  CCc1c(C(=O)c2cc(C)cc(C)c2)n(COCc2ccccc2)c(=O)n(O)c1=O             pIC50   6.00
4  CCc1c(C(=O)c2ccccc2)n(COCc2ccccc2)c(=O)n(O)c1=O             pIC50   4.85

Inquiry: Request the reported pIC50 associated with CCc1c(C(=O)c2cc(C)cc(C)c2)n(COCCc2ccc(F)cc2)c(=O)n(O)c1=O
Reply text: 5.00

Inquiry: // next record CCc1c(C(=O)c2cc(C)cc(C)c2)n(COCc2ccc(F)cc2)c(=O)n(O)c1=O
Reply text: 5.12

====

Here the recorded pIC50 is given for each entry.
target: Human immunodeficiency virus type 1 integrase (Human immunodeficiency virus 1, UniProt Q7ZJM1); experiment: Inhibition of HIV1 integrase strand transfer activity
Sequence (Q7ZJM1 whole entry): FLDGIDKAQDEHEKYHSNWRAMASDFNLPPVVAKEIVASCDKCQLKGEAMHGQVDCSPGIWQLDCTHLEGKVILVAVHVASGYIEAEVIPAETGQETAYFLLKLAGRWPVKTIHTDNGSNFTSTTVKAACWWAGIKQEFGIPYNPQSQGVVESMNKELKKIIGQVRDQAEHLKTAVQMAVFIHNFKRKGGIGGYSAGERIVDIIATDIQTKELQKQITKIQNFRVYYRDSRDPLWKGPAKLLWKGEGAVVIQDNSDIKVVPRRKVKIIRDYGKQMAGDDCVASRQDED
Value format note: pIC50 is -log10 of concentration (mol/L); just state the number.

>>> print(df.to_string())
                            smiles_notation  value
0  CCc1c(C(=O)c2cc(C)cc(C)c2)n(COCc2ccc(F)cc2)c(=O)n(O)c1=O   4.68
1  CCc1c(C(=O)c2cc(C)cc(C)c2)n(COCCc2ccc(F)cc2)c(=O)n(O)c1=O   5.15
2  CCc1c(C(=O)c2ccccc2)n(COCc2ccc(F)cc2)c(=O)n(O)c1=O   4.60
3  CCc1c(C(=O)c2cc(C)cc(C)c2)n(COCc2ccccc2)c(=O)n(O)c1=O   4.39
4  CCc1c(C(=O)c2ccccc2)n(COCc2ccccc2)c(=O)n(O)c1=O   4.43

Inquiry: What does the data say about its pIC50? Entry: CCc1c(C(=O)c2ccccc2)n(COCCc2ccc(F)cc2)c(=O)n(O)c1=O
Reply text: 5.39

====

Overview of reported selectivity ratio across a group of compounds:
test: Therapeutic index, ratio of CC50 for human CEM-SS cells to EC50 for HIV-1 3B infected in human CEM-SS cells; assay type: cell-based; conditions: CEM-SS cells (uninfected, and infected with HIV-1 3B)
Provide a numeric answer; units are not to be included.

Worked cases, selectivity ratio given:
In [3]: df
Out[3]:
                            smiles_notation   measurement_kind  value
0  CCOCn1c(C(=O)c2cc(C)cc(C)c2)c(CC)c(=O)n(O)c1=O  selectivity ratio   2600
1  CCc1c(C(=O)c2cc(C)cc(C)c2)n(COCc2ccc(F)cc2)c(=O)n(O)c1=O  selectivity ratio     78
2  CCOCn1c(C(=O)c2ccccc2)c(CC)c(=O)n(O)c1=O  selectivity ratio     41

Inquiry: Record request: selectivity ratio value, item CCc1c(C(=O)c2cc(C)cc(C)c2)n(COCc2ccccc2)c(=O)n(O)c1=O
Reply text: 540

====

Below, each entry is listed with its recorded CC50.
tested on: CEM-SS; experiment: Cytotoxicity against human CEM-SS cells; assay type: cell-based

See these solved cases before continuing.
>>> print(df.to_string())
                            smiles_notation  tested_on  measurement_kind     value
0  CCc1c(C(=O)c2ccccc2)n(COCCc2ccc(F)cc2)c(=O)n(O)c1=O     CEM-SS              CC50  > 100 µM
1  CCc1c(C(=O)c2ccccc2)n(COCc2ccc(F)cc2)c(=O)n(O)c1=O     CEM-SS              CC50  > 100 µM

# input for lookup
Inquiry: // query CC50 value for entry CCc1c(C(=O)c2ccccc2)n(COCc2ccccc2)c(=O)n(O)c1=O
Reply text: > 100 µM
